testedOn: human TRPC6 (Homo sapiens)
Sequence (Q9Y210 whole entry): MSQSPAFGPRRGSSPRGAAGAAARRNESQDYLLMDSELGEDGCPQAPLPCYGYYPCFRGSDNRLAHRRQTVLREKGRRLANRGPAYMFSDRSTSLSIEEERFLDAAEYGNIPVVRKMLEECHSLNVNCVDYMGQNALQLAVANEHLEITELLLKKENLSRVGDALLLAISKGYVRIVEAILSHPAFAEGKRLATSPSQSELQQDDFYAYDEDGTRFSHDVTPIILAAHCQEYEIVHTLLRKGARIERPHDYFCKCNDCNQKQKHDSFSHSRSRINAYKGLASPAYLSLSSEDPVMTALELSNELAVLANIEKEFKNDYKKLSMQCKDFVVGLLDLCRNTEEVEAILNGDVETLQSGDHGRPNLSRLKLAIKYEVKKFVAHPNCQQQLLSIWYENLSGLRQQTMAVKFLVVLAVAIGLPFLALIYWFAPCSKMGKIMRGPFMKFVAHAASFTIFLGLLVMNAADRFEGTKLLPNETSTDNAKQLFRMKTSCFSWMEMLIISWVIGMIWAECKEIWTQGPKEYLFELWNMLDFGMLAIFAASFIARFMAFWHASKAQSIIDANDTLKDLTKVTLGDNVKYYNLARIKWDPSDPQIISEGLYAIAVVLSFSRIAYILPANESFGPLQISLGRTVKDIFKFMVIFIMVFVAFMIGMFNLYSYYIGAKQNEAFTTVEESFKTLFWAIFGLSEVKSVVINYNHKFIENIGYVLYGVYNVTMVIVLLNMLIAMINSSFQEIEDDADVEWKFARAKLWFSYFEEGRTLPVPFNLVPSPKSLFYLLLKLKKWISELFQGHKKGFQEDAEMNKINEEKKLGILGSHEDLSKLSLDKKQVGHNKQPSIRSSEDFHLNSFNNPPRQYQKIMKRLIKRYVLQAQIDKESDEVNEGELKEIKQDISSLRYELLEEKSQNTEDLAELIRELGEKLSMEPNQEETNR
assayInfo: TRPC6 calcium flux assay (FLIPR, OAG-stimulated calcium influx)
runConditions: HEK293 cells stably transfected with human TRPC6, read-out: hTRPC6 Potency
readout: IC50

molecule=CC(=O)N1CCN(C(=O)Cn2c(N3CC[C@@H](F)[C@H](N)C3)nc3cc(F)c(F)cc32)CC1 measuredvalue="> 3.75 µM"
molecule="CNC(=O)C1CCCN(C(=O)Cn2c(N3CC[C@@H](F)[C@H](N)C3)nc3cc(F)c(F)cc32)C1 (stereo partly drawn)" measuredvalue="> 3.75 µM"

So for C[C@H](c1ccc(C(F)(F)F)cc1)n1c(N2CC[C@@H](F)[C@H](N)C2)nc2cc(F)c(F)cc21 , the logged IC50 turned out to be > 3.75 µM
